Please respond with reported Kd for every item in the list.
target: U1A E19F (UniProt P09012 10-89, E19F); assay: fluorescence polarization
Sequence (P09012 10-89 E19F): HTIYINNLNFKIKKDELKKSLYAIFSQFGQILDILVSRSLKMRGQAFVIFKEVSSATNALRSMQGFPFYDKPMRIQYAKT
Give bare numbers, in µM.

Check out these entries, answers already filled in.
- binder: "AGCUUAUCCAUUGCACCGGAUAAGCU (structured_RNA) [U1hpII RNA]"
  Kd / µM: 36.1
- binder: "GGCAGATCTGAGCCTGGGAGCTCTCTGCC (structured_DNA) [TAR DNA]"
  Kd / µM: 156

Proceeding to the next binder to report its Kd.
IN: Quickly give me recorded Kd for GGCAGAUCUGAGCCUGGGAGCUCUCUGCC (structured_RNA) [TAR RNA]
OUT: 6.2
